inhibition overview
target: Cytochrome P450 2C9 (Homo sapiens) (UniProt P11712); assay: blockers of cytochrome P450 2C9 activity – biochemical, luminescence, ADME assay, primary screen (AID 777); settings: CYP2C9 Supersomes, luciferin-H conversion, at 5 µM, stronger effect = higher value
Sequence (P11712 whole entry, looked up): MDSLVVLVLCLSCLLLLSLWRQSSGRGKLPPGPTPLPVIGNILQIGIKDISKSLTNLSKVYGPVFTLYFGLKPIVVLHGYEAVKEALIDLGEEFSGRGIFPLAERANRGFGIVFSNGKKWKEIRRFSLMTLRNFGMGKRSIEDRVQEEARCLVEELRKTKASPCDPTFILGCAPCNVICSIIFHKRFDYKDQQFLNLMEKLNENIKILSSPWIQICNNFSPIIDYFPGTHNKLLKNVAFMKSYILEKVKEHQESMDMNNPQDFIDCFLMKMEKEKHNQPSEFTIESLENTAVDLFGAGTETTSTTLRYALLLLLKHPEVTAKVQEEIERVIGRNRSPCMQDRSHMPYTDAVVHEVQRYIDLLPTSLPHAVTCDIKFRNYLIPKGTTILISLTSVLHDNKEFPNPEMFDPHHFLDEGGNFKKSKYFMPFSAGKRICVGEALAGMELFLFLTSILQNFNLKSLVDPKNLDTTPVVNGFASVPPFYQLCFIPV
Screen size: about 96,000 compounds; about 19,000 (20%) were called active. The list is a sample of the results.
// return numeric value only (unit: %, not printed)

FC(F)(F)c1cccc(NC(=S)Nc2cccc(Cl)c2)c1; -83

Can you look up the measured inhibition of Cn1nc(C(F)(F)F)c(C(=O)Nc2cccc(C(F)(F)F)c2)c1SCc1ccc(Cl)cc1 for me? 97.5

Can you look up the measured inhibition of O=C(c1cc(-c2cccs2)on1)N1CCCCC1 for me? -21.4

Can you look up the measured inhibition of COc1ccccc1C(=O)Nc1ccc(NC(=O)c2ccco2)c(C)c1 for me? -177

Can you look up the measured inhibition of O=C(CN1CCN(c2ccc(Cl)cc2)CC1)N1CCCC1 for me? 57.4

Can you look up the measured inhibition of CC1(C)CC(=O)C2=C(C1)N=C1SCCC(=O)N1C2c1ccc(C(F)(F)F)cc1 (stereo not drawn) for me? -19.2

Can you look up the measured inhibition of CCC(=O)OCc1c(C(F)(F)F)nn(C)c1Oc1cccc(C(F)(F)F)c1 for me? 34

Can you look up the measured inhibition of Cc1ccc2[nH]c3c(c2c1)CN(C(=O)CN1CCN(c2ccccc2)CC1)CC3 for me? 30.7

Can you look up the measured inhibition of CC1(C)CC(=O)C(C=NCCN2CCN(C(=S)Nc3cccc(Cl)c3)CC2)=C(O)C1 for me? 51.8

Can you look up the measured inhibition of CC1CCCCC1NC(=O)CSc1nnc(N)s1 (stereo not drawn) for me? -16.3

----------
target: Cytochrome P450 2C9 (Homo sapiens); experiment: blockers of cytochrome P450 2C9 activity – biochemical, luminescence, ADME assay, primary screen (AID 777); conditions: CYP2C9 Supersomes, luciferin-H conversion, at 5 µM, stronger effect = higher value
In all, about 96,000 compounds went through this assay and about 19,000 (20%) were called active. A selection follows.
inhibition overview
// return numeric value only (unit: %, not printed)

// worked examples, inhibition included
CCCC(=O)Nc1ccccc1N1CCN(C(=O)c2ccccc2)CC1; 35.7
Cc1ccc(-n2c(SCC(=O)Nc3ccc4c(c3)OCO4)nnc2-c2ccccn2)cc1; 43
COc1ccccc1NC(=O)c1ccc2nc(N3C(=O)CCC3=O)sc2c1; -32
Cc1ccccc1-c1nnc(SCC(=O)NCc2ccc3c(c2)OCO3)n1C; 88.6

Can you look up the measured inhibition of Cn1cccc1Cc1nnc(SCC(=O)NCCc2ccccc2)n1-c1ccc(F)cc1 for me? 48.3

Can you look up the measured inhibition of CC(C)NC(=O)CSc1ccccc1C(=O)NCc1ccc2c(c1)OCO2 for me? 16.9

Can you look up the measured inhibition of O=C(CSc1nnc(-c2ccccn2)n1-c1ccccc1)Nc1ccc2c(c1)OCO2 for me? 2.8

Can you look up the measured inhibition of COc1ncnc2c1N=C1CC(C)(C)CC(N)=C1S2 for me? 1.2

Can you look up the measured inhibition of Cc1ccc(-n2c(SCC(=O)NCc3ccc4c(c3)OCO4)nnc2-c2cccnc2)c(C)c1 for me? 62.7

Can you look up the measured inhibition of N#Cc1ccc(-c2ccc(Cl)cc2)nc1Oc1ccc(F)cc1 for me? 6.8

----------
biological target: Cytochrome P450 2C9 (Homo sapiens) (UniProt P11712); experiment: blockers of cytochrome P450 2C9 activity – biochemical, luminescence, ADME assay, primary screen (AID 777); details: CYP2C9 Supersomes, luciferin-H conversion, at 5 µM, stronger effect = higher value
Out of some 96,000 compounds screened, about 19,000 (20%) were called active. The list is a sample of the results.
inhibition overview
// return numeric value only (unit: %, not printed)

COc1ccccc1/C=C/C1=NC(=C\N(C)C)/C(=O)O1; -6.3

Can you look up the measured inhibition of COCCCNC(=O)C1CC(=O)N(c2ccc(C)cc2)C1 (stereo unspecified) for me? -1.7

Can you look up the measured inhibition of Cc1nc(SCC(=O)Nc2cc(C)on2)c2c3c(sc2n1)CCCC3 for me? -1.7

Can you look up the measured inhibition of CN(C)S(=O)(=O)c1ccc(N2CCCC2)c(C(=O)NCc2ccccc2)c1 for me? 59.9

Can you look up the measured inhibition of N#CC1=C(SCc2ccccc2)NC(=O)C(C#N)C12CCCC2 (stereo unspecified) for me? 46.5

Can you look up the measured inhibition of COc1ccc(-c2[nH]nc3c2C(c2ccncc2)C(C#N)=C(N)O3)cc1 (stereo unspecified) for me? -13

Can you look up the measured inhibition of CCCN1Cc2cccc(C(=O)Nc3ccc(S(=O)(=O)N4CCCCCC4)cc3)c2C1=O for me? 38

Can you look up the measured inhibition of CCCc1nc2sc3c(c2c(=O)n1NC(=O)CCCl)CCCC3 for me? 85

Can you look up the measured inhibition of CCN(CC)S(=O)(=O)c1ccc(N2CCOCC2)c(C(=O)O)c1 for me? 19.3

Can you look up the measured inhibition of CCOc1ccc(OCC)c(NC(=O)C2CCN(S(=O)(=O)c3c(C)noc3C)CC2)c1 for me? 48.4

Can you look up the measured inhibition of Cc1cc(=O)oc2cc(NC(=O)C3CC(=O)N(Cc4ccccc4)C3)ccc12 (stereo unspecified) for me? 10.4

Can you look up the measured inhibition of O=C1CSC(c2cccc(F)c2)N1c1ccc(O)cc1 (stereo unspecified) for me? 32.7

Can you look up the measured inhibition of Nn1c(SCC(=O)NC(=O)NC2CCCC2)nnc1-c1ccccc1F for me? 44

Can you look up the measured inhibition of CCCC(=O)Nc1ccc2c(c1)nc1n2CCSC1 for me? 3.2

Can you look up the measured inhibition of CCCc1[nH]nc2c1C(c1c(C)nn(-c3ccccc3)c1Cl)C(C#N)=C(N)O2 (stereo unspecified) for me? 52.8

Can you look up the measured inhibition of Cc1cc(=O)oc2cc(OCC3CC(c4ccccc4Cl)=NO3)ccc12 (stereo unspecified) for me? 65.7

Can you look up the measured inhibition of Cc1ccc(S(=O)(=O)Nc2nc(C)cc(-n3nc(C)cc3C)n2)cc1 for me? 29.1

Can you look up the measured inhibition of OCCNc1nc2ccccc2[nH]1 for me? 2.6

----------
inhibition overview
molecular target: Cytochrome P450 2C9 (Homo sapiens) (UniProt P11712); assay: blockers of cytochrome P450 2C9 activity – biochemical, luminescence, ADME assay, primary screen (AID 777); details: CYP2C9 Supersomes, luciferin-H conversion, at 5 µM, stronger effect = higher value
The campaign covered roughly 96,000 compounds. About 19,000 (20%) were called active. Not all results are given here.

COc1ccc(C(=O)Nc2ccc(S(=O)(=O)NC(C)C)cc2)cc1; 34.1% (inactive)
COc1cc(NS(=O)(=O)c2ccc(NC(C)=O)cc2)cc(OC)c1; 43.7% (inactive)
O=C(O)CCC(=O)Nc1ccc(N2CCOCC2)cc1; 3.7% (inactive)
O=C(CC(O)(C(F)(F)F)C(F)(F)F)Nc1ccc(Cl)c(Cl)c1; 65% (active)
Clc1ccccc1-c1cc(COc2ccc3ccccc3c2)no1; -11% (inactive)
CC(=O)Nc1ccc(S(=O)(=O)Nc2cccc(NC(=O)C(C)(C)C)c2)cc1; 59.2% (active)
COc1ccc(-c2nnc(SC(=O)N3c4ccccc4Sc4ccccc43)o2)cc1; 83.1% (active)
Cc1ccc(CNC(=O)C2CCCN(S(C)(=O)=O)C2)cc1 (stereo not drawn); -3.4% (inactive)
COc1ccc(NS(=O)(=O)c2ccc(NC(C)=O)cc2)cc1OC; -8.7% (inactive)
COc1ccc(C2CC(=O)C=C(NCC3CCCO3)C2)cc1 (stereo not drawn); 9.3% (inactive)

Can you look up the measured inhibition of O=S(=O)(c1cccs1)N1CCN(Cc2ccccc2)CC1 for me? 69.5% (active)

Can you look up the measured inhibition of O=C(C1CCN(S(=O)(=O)c2cccs2)CC1)N1CCCCCC1 for me? 34.9% (inactive)

Can you look up the measured inhibition of Cc1nnc(SCC(=O)Nn2cnnc2)s1 for me? 29.8% (inactive)

Can you look up the measured inhibition of COC(=O)c1nc(NC(=O)c2ccc(Cl)cc2)n[nH]1 for me? 7.9% (inactive)

Can you look up the measured inhibition of CCOc1c(OC)cc(C2C(C#N)=C(N)Oc3n[nH]c(-c4ccncc4)c32)cc1OC (stereo not drawn) for me? 20.1% (inactive)

Can you look up the measured inhibition of Cc1nnc(NC(=O)Nc2ccc(Cl)c(Cl)c2)s1 for me? 48.4% (inactive)

Can you look up the measured inhibition of O=C(NCc1ccccc1)C1CCCN(S(=O)(=O)c2cccs2)C1 (stereo not drawn) for me? 81.9% (active)

Can you look up the measured inhibition of COC(=O)COc1ccc(S(=O)(=O)Nc2ccc(NC(C)=O)cc2)cc1 for me? 61.2% (active)

Can you look up the measured inhibition of CCCS(=O)(=O)N1CCCC(C(=O)NCc2ccco2)C1 (stereo not drawn) for me? 0.9% (inactive)

Can you look up the measured inhibition of OC(c1ccccc1)c1nccn1Cc1ccccc1 (stereo not drawn) for me? 10.1% (inactive)

Can you look up the measured inhibition of CC(=O)Nc1ccc(S(=O)(=O)Nc2nc3n(n2)C(c2ccccc2)CC(=O)N3)cc1 (stereo not drawn) for me? -3.6% (inactive)

Can you look up the measured inhibition of COc1ccc(-c2nnc(SC(C)C#N)o2)cc1 (stereo not drawn) for me? 13.9% (inactive)

Can you look up the measured inhibition of COc1cc(OC)cc(C(=O)NC2CCN(C(=O)N3c4ccccc4Sc4ccccc43)CC2)c1 for me? 41.4% (inactive)
